tested on: ET (luc-ubi-neo/ET) Huh7 human hepatoma cell line; assay: Cytotoxicity, CytoTox-1 cell proliferation assay of cell numbers; conditions: concentration decreasing cell viability by 50%; Huh7 ET cells, 72 hr; Table 1
CC50 values by entry

Record excerpt, results attached:
* COC(=O)C[C@H](NP(=O)(OCC1OC(n2ccc(N)nc2=O)C(C)(O)C1O)Oc1ccccc1)C(=O)OC (stereo partly shown) [Cmpd 16a] | > 100 µM
* COC(=O)[C@H](CC(=O)OCc1ccccc1)NP(=O)(OCC1OC(n2ccc(N)nc2=O)C(C)(O)C1O)Oc1ccccc1 (stereo partly shown) [Cmpd 16b] | > 100 µM
* COC(=O)[C@H](CC(=O)OCc1ccccc1)NP(=O)(OCC1OC(n2ccc(=O)[nH]c2=O)C(C)(O)C1O)Oc1ccccc1 (stereo partly shown) [Cmpd 17b] | 43.4 µM
* CC(C)CCOC(=O)C[C@H](NP(=O)(OCC1OC(n2ccc(N)nc2=O)C(C)(O)C1O)Oc1ccccc1)C(=O)OCCC(C)C (stereo partly shown) [Cmpd 16f] | 9.54 µM
* CC(C)OC(=O)C[C@H](NP(=O)(OCC1OC(n2ccc(N)nc2=O)C(C)(O)C1O)Oc1ccccc1)C(=O)OC(C)C (stereo partly shown) [Cmpd 16c] | > 100 µM
* COC(=O)C[C@H](NP(=O)(OCC1OC(n2ccc(=O)[nH]c2=O)C(C)(O)C1O)Oc1ccccc1)C(=O)OC (stereo partly shown) [Cmpd 17a] | > 100 µM

Okay, next one:
CC50 lookup needed for CCCCOC(=O)C[C@H](NP(=O)(OC[C@H]1O[C@@H](n2ccc(N)nc2=O)[C@](C)(O)[C@@H]1O)Oc1ccccc1)C(=O)OCCCC (stereo partly shown) [Cmpd 16d] , thanks. 30.9 µM

---

Quick note: these are CC50 numbers for system: ET (luc-ubi-neo/ET) Huh7 human hepatoma cell line
The response must be a number in µM with no trailing unit.

Record excerpt, results attached:
• CCCCCOC(=O)C[C@H](NP(=O)(OCC1OC(n2ccc(N)nc2=O)C(C)(O)C1O)Oc1ccccc1)C(=O)OCCCCC (stereo partly shown) [Cmpd 16e] = 9.53
• CC(C)CCOC(=O)C[C@H](NP(=O)(OCC1OC(n2ccc(=O)[nH]c2=O)C(C)(O)C1O)Oc1ccccc1)C(=O)OCCC(C)C (stereo partly shown) [Cmpd 17f] = 10
• CC(C)CCOC(=O)C[C@H](NP(=O)(OCC1OC(n2ccc(=O)[nH]c2=O)C(C)(F)C1O)Oc1ccccc1)C(=O)OCCC(C)C (stereo partly shown) [Mixture 23a/23b] = 33.1

CC50 lookup needed for CCCCCOC(=O)C[C@H](NP(=O)(OCC1OC(n2ccc(=O)[nH]c2=O)C(C)(O)C1O)Oc1ccccc1)C(=O)OCCCCC (stereo partly shown) [Cmpd 17e] , thanks. 7.11

CC50 lookup needed for CCCCOC(=O)C[C@H](NP(=O)(OCC1OC(n2ccc(=O)[nH]c2=O)C(C)(O)C1O)Oc1ccccc1)C(=O)OCCCC (stereo partly shown) [Cmpd 17d] , thanks. 4.64

CC50 lookup needed for CC(C)CCOC(=O)C[C@H](NP(=O)(OCC1OC(n2ccc(=O)[nH]c2=O)C(C)(F)C1O)Oc1ccccc1)C(=O)OCCC(C)C (stereo partly shown) [Cmpd 23a] , thanks. 27.7

CC50 lookup needed for CC(C)OC(=O)C[C@H](NP(=O)(OCC1OC(n2ccc(=O)[nH]c2=O)C(C)(O)C1O)Oc1ccccc1)C(=O)OC(C)C (stereo partly shown) [Cmpd 17c] , thanks. 35.7

---

assay: Cytotoxicity, CytoTox-1 cell proliferation assay of cell numbers; conditions: human
test readout: CC50 at 72 h

- C[C@@]1(O)[C@H](O)[C@@H](CO)O[C@H]1n1ccc(N)nc1=O [Cmpd 4, 2′-C-methylcytidine, reference compound]: > 100 µM
- C[C@@]1(F)[C@H](O)[C@@H](CO)O[C@H]1n1ccc(=O)[nH]c1=O [Cmpd 22, 2′-deoxy-2′-fluoro-2′-C-methyluridine, reference compound]: > 100 µM

Okay, next one:
CC50 at 72 h lookup needed for C[C@@]1(O)[C@H](O)[C@@H](CO)O[C@H]1n1ccc(=O)[nH]c1=O [Cmpd 5, 2′-C-methyluridine, reference compound] , thanks. > 100 µM
